Inhibition (%) of the luciferase light signal by entry:
tested on: luciferase light signal from pIB29EL (yopE-luxAB); experiment: microbe, parasite or virus in culture; assay type: cell-based, Yersinia pseudotuberculosis; conditions: 20 μM; strain pIB29EL; Table 2C
Express your answer in %, writing the number without its unit.

-- ask I am curious: what Inhibition (%) of the luciferase light signal value has been reported for O=C(Nc1cccc(Cl)c1)c1cc(Cl)ccc1NS(=O)(=O)c1cccc2nsnc12 ?
-- reply 26

-- ask Further, for CC(=O)Oc1c(Cl)cc(Cl)c(Cl)c1C(=O)Nc1ccc(SC(F)(F)F)cc1 ?
-- reply 73

-- ask Further, for O=C(Nc1ccc(SC(F)(F)F)cc1)c1cccc(Cl)c1O ?
-- reply 86

-- ask Further, for CC(=O)Oc1ccc(I)cc1C(=O)Nc1ccc(Cl)cc1 ?
-- reply 91

-- ask Further, for CC(=O)Oc1c(I)cc(I)cc1C(=O)Nc1cc(Cl)ccc1F ?
-- reply 63

-- ask Further, for O=C(Nc1ccccc1)c1cc(I)cc(I)c1O ?
-- reply 60

-- ask Further, for CC(=O)Oc1ccc(I)cc1C(=O)Nc1ccc(Br)cc1 ?
-- reply 89

-- ask Further, for O=C(Nc1ccc(Cl)cc1)c1cc(I)ccc1O ?
-- reply 83

-- ask Further, for O=C(Nc1ccc(Cl)c(Cl)c1)c1ccccc1NS(=O)(=O)c1cccc2nsnc12 ?
-- reply 0

-- ask Further, for NC(=O)C(=O)N/N=C/c1cc(Br)cc(Br)c1O ?
-- reply 19

-- ask Further, for CC(=O)Oc1ccc(Cl)cc1C(=O)Nc1ccc([N+](=O)[O-])cc1Cl ?
-- reply 91

-- ask Further, for CC(=O)Oc1ccccc1C(=O)Nc1ccc(Cl)cc1 ?
-- reply 65
